B1: PBXIP1 (parent)
chain: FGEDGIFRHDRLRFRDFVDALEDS

- Variants of: B1
- METHOD SUMMARY: protein stability index of a GFP-peptide fusion (GPS, HEK-293T) (PSI 1-6); higher = more stable;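 further: lentivirally expressed fusions sorted by FACS into six bins by GFP to DsRed ratio, PSI derived from sequencing read proportions per bin multiplied by bin number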
- TEST SETTINGS: c terminus: a fixed tail appended
ASSAY READOUT: protein stability index
Hey, just send me the number, nothing else.

mutation_label=R8Y assay_readout="protein stability index" test_value=2.46

Asked: Consider the variant H9K . State its measured protein stability index.
Given back: 2.08

Asked: Consider the variant D16Q . State its measured protein stability index.
Given back: 2.42

Asked: Consider the variant R11F . State its measured protein stability index.
Given back: 2.5

Asked: Consider the variant F7W . State its measured protein stability index.
Given back: 1.95

Asked: Consider the variant V18C . State its measured protein stability index.
Given back: 3.3

Asked: Consider the variant G5T . State its measured protein stability index.
Given back: 2.88

Asked: Consider the variant R11D . State its measured protein stability index.
Given back: 3.95

Asked: Consider the variant G5V . State its measured protein stability index.
Given back: 3.19

Asked: Consider the variant L12C . State its measured protein stability index.
Given back: 2.74

Asked: Consider the variant F14A . State its measured protein stability index.
Given back: 3.43

Asked: Consider the variant F14S . State its measured protein stability index.
Given back: 3.81

Asked: Consider the variant S24I . State its measured protein stability index.
Given back: 2.29

Asked: Consider the variant R8S . State its measured protein stability index.
Given back: 2.85

Asked: Consider the variant G2N . State its measured protein stability index.
Given back: 3.09

Asked: Consider the variant F17N . State its measured protein stability index.
Given back: 3.55
